Tested on: U2OS
PROTOCOL DESCRIPTION: Incucyte cell viability with U2OS; also: unitless GR value; below 1 slowed growth and below 0 cell loss
Format: toxicity, cell-based
CONDITION LABEL: human, 12 h, 10 µM, compound concentration 10 uM, replicate number 1
MEASURED PARAMETER: Growth Rate

Example compounds with recorded Growth Rate:
Fill in: Growth Rate of O=C(N[C@H]1CCCCC/C=C\C2C[C@@]2(C(=O)O)NC(=O)[C@@H]2C[C@@H](Oc3ccncc3)CN2C1=O)OC1CCCC1 (stereo partly specified) is ___
0.68

Fill in: Growth Rate of "CC(C)N1CCN(Cc2cnc(-c3cc(-c4cccc5[nH]ccc45)cc4[nH]ncc34)o2)CC1" is ___
0.83

More entries:
Fill in: Growth Rate of "CCOC(=O)c1c(/C(C#N)=C\N)c2ccc(Cl)c(Cl)c2n1C" is ___
0.97

Fill in: Growth Rate of "COC[C@@H](CC(C)C)NC1=N/C(=C\c2ccc3ncsc3c2)C(=O)N1C" is ___
0.73

Fill in: Growth Rate of "CC(C)(O)CNC(=O)N1C(=O)N(c2cccc(C(F)(F)F)c2)C2=C(C(=O)CC2)[C@H]1c1ccc(C#N)cc1" is ___
0.56

Fill in: Growth Rate of "CN(C)CC#Cc1ccc2[nH]c3c(c2c1)-c1nc(N)ncc1CCC3" is ___
0.96

Fill in: Growth Rate of "COc1cc2ncnc(N[C@H](C)c3ccccc3)c2cc1OC1CCN(S(C)(=O)=O)CC1.Cl" is ___
0.89

Fill in: Growth Rate of "CCN1CCN(Cc2ccc(C(=O)Nc3ccc(C)c(Oc4ccc5c(c4)CC(=O)N5)c3)cc2C(F)(F)F)CC1.Cl.Cl" is ___
0.23

Fill in: Growth Rate of "Cc1csc(-c2nnc(Nc3ccc(Oc4ncccc4-c4ccnc(N)n4)cc3)c3ccccc23)c1" is ___
0.57

Fill in: Growth Rate of "Nc1c(CC(=O)O)cccc1C(=O)c1ccc(Br)cc1" is ___
0.79

Fill in: Growth Rate of "CCCS(=O)(=O)Nc1ccc(F)c(Nc2ncnc3cnc(-n4cnc(C)c4)nc23)c1F" is ___
0.7

Fill in: Growth Rate of "C=CC(=O)Nc1ccc2[nH]c(=O)n(C3CCN(Cc4ccc(-c5ccc6c(c5)NC(=O)CO6)cc4)CC3)c2c1" is ___
0.76

Fill in: Growth Rate of "COc1ccc(NC(=O)[C@@H]2C[C@H](C)CC[C@H]2C(C)C)cc1" is ___
0.93

Fill in: Growth Rate of "C[C@@H](CO)CCC[C@@H](C)[C@H]1CC[C@H]2[C@@H]3CC=C4C[C@@H](O)CC[C@]4(C)[C@H]3CC[C@]12C" is ___
0.84

Fill in: Growth Rate of "CN(C)[C@H]1CC[C@H](Nc2ncc3ncnc(Nc4ccc(F)c(Cl)c4)c3n2)CC1" is ___
0.48

---

Quick reference: Growth Rate of the listed items.
Test system: HEK-293T
PROTOCOL DESCRIPTION: Incucyte cell viability with HEK293T; also: unitless GR value; below 1 slowed growth and below 0 cell loss
Assay type: toxicity, cell-based
CONDITION LABEL: human, 12 h, 10 µM, compound concentration 10 uM, replicate number 2
Please give the numeric answer without any surrounding text.

Fill in: Growth Rate of "CNC(=O)COc1cc2cc(Nc3nc(N4CCC(C(=O)N(C)C)CC4)ncc3Cl)cc(OC)c2n(C)c1=O" is ___
0.41

Fill in: Growth Rate of "CCCCC[C@H](O)/C=C/[C@H]1[C@H](O)CC(=O)[C@@H]1CCCCCCC(=O)O" is ___
0.97

Fill in: Growth Rate of "CC(=O)O[C@H]1C(=O)[C@@]2(C)[C@H]([C@H](OC(=O)c3ccccc3)[C@]3(O)C[C@H](OC(=O)[C@H](O)[C@@H](NC(=O)c4ccccc4)c4ccccc4)C(C)=C1C3(C)C)[C@]1(OC(C)=O)CO[C@@H]1C[C@@H]2O" is ___
-0.41

Fill in: Growth Rate of C[C@@H]1CC[C@@]2(OC1)O[C@H]1[C@@H](O)[C@H]3[C@@H]4CC[C@H]5C[C@@H](O[C@@H]6O[C@H](CO)[C@H](O[C@@H]7O[C@H](CO)C(O)[C@H](O[C@@H]8OC[C@@H](O)[C@H](O)[C@H]8O)[C@H]7O[C@@H]7O[C@H](CO)[C@H](O)[C@H](O[C@@H]8O[C@H](CO)[C@@H](O)[C@H](O)[C@H]8O)[C@H]7O)[C@H](O)[C@H]6O)[C@H](O)C[C@]5(C)[C@H]4CC[C@]3(C)[C@H]1[C@@H]2C (some centres undefined) is ___
0.65

More entries:
Fill in: Growth Rate of "CC[C@@]1(c2ccccc2)NC(=O)N(Cc2ccccc2)C1=O" is ___
0.77

Fill in: Growth Rate of "COc1cc(-c2cn(C)c(=O)c3cnccc23)c(OC)cc1CN(C)C" is ___
0.4

Fill in: Growth Rate of "Cc1ccc(NC(=O)c2ccc3cnccc3c2)cc1C(=O)Nc1cnc(Nc2cccc(NC3CCN(C(=O)/C=C/CN(C)C)CC3)c2)nc1" is ___
-0.77

Fill in: Growth Rate of "COc1cc(C(=O)NCCOCCOCCOCC(=O)N[C@H](C(=O)N2C[C@H](O)C[C@H]2C(=O)NCc2ccc(-c3scnc3C)cc2)C(C)(C)C)ccc1Nc1ncc(C(F)(F)F)c(Oc2cccc3c2C(=O)CC3)n1" is ___
0.02

Fill in: Growth Rate of "CNC(=O)c1cc(C(=O)NC2CC2)cn(Cc2ccccc2)c1=O" is ___
0.76

---

Tested on: HEK-293T
PROTOCOL DESCRIPTION: Incucyte cell viability with HEK293T; also: unitless GR value; below 1 slowed growth and below 0 cell loss
Format: toxicity, cell-based
CONDITION LABEL: human, 0 h, 10 µM, compound concentration 10 uM, replicate number 2
MEASURED PARAMETER: Growth Rate
Please give the numeric answer without any surrounding text.

Fill in: Growth Rate of "Clc1cccc(-n2nnnc2NCc2ccccc2Oc2ccccn2)c1Cl" is ___
0.49

More entries:
Fill in: Growth Rate of "CCOC(=O)c1ncn2c1[C@@H]1CCCN1C(=O)c1cc(OC)ccc1-2" is ___
1

Fill in: Growth Rate of "C=CC(=O)Nc1cccc(C(=O)Nc2ccc(NC(=O)c3cccc(-c4ccn[nH]4)n3)cc2)c1" is ___
0.5

Fill in: Growth Rate of "CCO[C@H](COc1ccc(C(F)(F)F)cc1)CSc1ccc(OCC(=O)[O-])c(C)c1.[Na+]" is ___
-0.95

Fill in: Growth Rate of "Cn1cc(-n2cnc3c(NCc4nc5cc(Cl)c(Cl)cc5[nH]4)nc(N4CCOCC4)nc32)cn1" is ___
0.65

Fill in: Growth Rate of "Cc1cc(SCc2sc(-c3ccc(C(F)(F)F)cc3)nc2C)ccc1OCC(=O)O" is ___
-0.84

---

Quick reference: Growth Rate of the listed items.
Test system: Fibroblast
PROTOCOL DESCRIPTION: Incucyte cell viability with human fibroblast; also: unitless GR value; below 1 slowed growth and below 0 cell loss
Type: toxicity, cell-based
CONDITION LABEL: 6 h, 10 µM, compound concentration 10 uM, replicate number 2

Fill in: Growth Rate of "Cc1ccc(-n2nc(C(C)(C)C)cc2NC(=O)Nc2ccccc2F)cc1" is ___
0.02

Fill in: Growth Rate of CC(=O)Oc1ccc2c(c1)[C@@]1(C)CCC[C@](C)(C(=O)OC(=O)[C@@]3(C)CCC[C@]4(C)c5cc(OC(C)=O)ccc5CC[C@@H]34)[C@@H]1CC2 [ACETYL PODOCARPIC ACID ANHYDRIDE] is ___
0.4

Fill in: Growth Rate of CC(C)c1ccc(CC(=O)N[C@H](C)c2ccc(OCC(F)(F)F)cn2)cc1 [SUVECALTAMIDE] is ___
-1

---

Test system: Fibroblast
PROTOCOL DESCRIPTION: Incucyte cell viability with human fibroblast; also: unitless GR value; below 1 slowed growth and below 0 cell loss
Format: toxicity, cell-based
CONDITION LABEL: 24 h, 10 µM, compound concentration 10 uM, replicate number 1
MEASURED PARAMETER: Growth Rate
Please give the numeric answer without any surrounding text.

Example compounds with recorded Growth Rate:
Fill in: Growth Rate of "C/C(=C\C(=O)Nc1ccccc1C(=O)[O-])c1ccc2ccccc2c1.[Na+]" is ___
0.83

Fill in: Growth Rate of "CC(C)(C)NC(=O)c1cncn1C1CCN(c2ccc(-c3nnc(C(F)(F)F)o3)cn2)CC1" is ___
-0.13

Fill in: Growth Rate of "O=C(O)CCCCN(CCc1ccccc1OCc1ccc(CCc2ccccc2)cc1)Cc1ccc(C(=O)O)cc1" is ___
0.98

Fill in: Growth Rate of "Cc1ccc(C)c(OCCCC(C)(C)C(=O)O[C@@H]2O[C@H](C(=O)O)[C@@H](O)[C@H](O)[C@H]2O)c1" is ___
0.68

Fill in: Growth Rate of "O=C(Nc1ccc(-n2nc(-c3cccnc3)cc2C(F)(F)F)cn1)c1ccc(-c2ccccc2)c(F)c1" is ___
0.99

Fill in: Growth Rate of CC(Oc1cc(-c2cnn(C3CCNCC3)c2)cnc1N)c1c(Cl)ccc(F)c1Cl (stereo not given) is ___
-0.22

Fill in: Growth Rate of "Cc1nccn1-c1ccc(Sc2cccc(C3(C(N)=O)CCOCC3)c2)cc1" is ___
0.45

Fill in: Growth Rate of "CN1CCN(C(=O)Cc2ccc(N/C(=C3\C(=O)Nc4cc(Cl)ccc43)c3ccccc3)cc2)CC1" is ___
0.48

More entries:
Fill in: Growth Rate of "CCOC(=O)c1ncn2c1[C@@H]1CCCN1C(=O)c1cc(OC)ccc1-2" is ___
0.63

Fill in: Growth Rate of "CNc1nc(-c2ccc3c(N)n[nH]c3c2)cc(N2C[C@@H](C(=O)NC3CCCCC3)CC[C@H]2C)n1" is ___
0.22
